Where these numbers come from: patent US20110053865A1

Target: T1, recombinant human IL-23 (p19/p40) (human, UniProt Q9NPF7 20-189; P29460 23-328)
T1 construct: Bought heterodimer (R&D Systems or eBioscience); biotinylated in the alpha-screens; also called hIL-23
T1 sequence (looked up) 1: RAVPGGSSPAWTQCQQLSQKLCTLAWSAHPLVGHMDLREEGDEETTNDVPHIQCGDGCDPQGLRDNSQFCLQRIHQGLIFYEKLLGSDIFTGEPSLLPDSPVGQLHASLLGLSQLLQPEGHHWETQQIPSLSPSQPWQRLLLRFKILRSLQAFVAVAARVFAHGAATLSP
T1 sequence (looked up) 2: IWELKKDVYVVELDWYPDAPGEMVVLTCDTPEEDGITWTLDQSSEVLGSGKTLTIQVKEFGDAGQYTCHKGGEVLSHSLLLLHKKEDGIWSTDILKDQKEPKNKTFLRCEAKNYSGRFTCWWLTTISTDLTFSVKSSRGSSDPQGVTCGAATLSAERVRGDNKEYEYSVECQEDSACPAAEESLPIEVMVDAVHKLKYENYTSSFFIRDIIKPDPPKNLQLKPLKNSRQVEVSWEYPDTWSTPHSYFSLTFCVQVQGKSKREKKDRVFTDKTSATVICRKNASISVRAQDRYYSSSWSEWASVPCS
Test: SPR Biacore, hIL-23 on chip
Can you tell me koff for the items I'm about to list?
Enter your answer as a number in s⁻¹; do not include the unit.

The binder identified as P23IL 20F2 (VHH, p40- Nanobody) VHH: EVQLVESGGGLVQPGGSLRLSCAASGFSLDYTAIGWFRQAPGKEREVVSCFTSVPGSTYHADSVKGRFTIASDNAKNTVYLQMNDLKPEDTAVYYCATDAQTYYSGSYCGRTPQEYPYWGQGTQVTVSS registered its koff at 0.00054

The binder identified as P23IL80D10 (VHH, p40- Nanobody) VHH: EVQLVESGGGLVQAGGSLRLSCAASGRTFEGNPMGWFRQASGKKREFVASIDWSGGITSYADSVKGRFTISRDNAKNTVYLQMNSLKPEDTAVYYCAASARFGSGSYYDLMYDYWGQGTQVTVSS registered its koff at 9.7e-05

The binder identified as P23IL 81A1 (VHH) VHH: EVQLVESGGGLVQTGGSLRLSCAASVINFRLADMDWYRQALGKQRELVASISTGYRTNYADFVKGRFTISRDNAKNTVYLQMDSLKPEDTAVYYCAARDLRGLRVDYWGQGTQVTVSS registered its koff at 0.00059

The binder identified as P23IL 84G1 (VHH, p40- Nanobody) VHH: EVQLVESGGGMVQAGGSLRLSCTASGLTDNSYAMGWFRRAPGKEREFLTGLTLSGGSTYYADSVKGRFTTSRDSQKNTVSLQMNSLKPEDTAVYYCAANRFGYGSAAYTPDNYNYWAQGTQVTVSS registered its koff at 0.0002

The binder identified as P23IL 22D10 (VHH, p40- Nanobody) VHH: EVQLVESGGGLVQAGASLRLSCAASGRTFRSYNMGWLRQAPGKEREFVATISWNAGIPYYADSVKGRFTISRDNAKNTVYLQMNSLKPEDTAVYYCAASNSWSSSARFYDYWGQGTQVTVSS registered its koff at 0.001
